experimental.system: mutant MGL (mut-MGLL 11-313 L179S L186S) (Homo sapiens, UniProt Q99685, L169S/L176S)
Construct: purified mutant MGL (mut-MGLL 11-313 L179S L186S)
Sequence (Q99685 whole entry L169S/L176S): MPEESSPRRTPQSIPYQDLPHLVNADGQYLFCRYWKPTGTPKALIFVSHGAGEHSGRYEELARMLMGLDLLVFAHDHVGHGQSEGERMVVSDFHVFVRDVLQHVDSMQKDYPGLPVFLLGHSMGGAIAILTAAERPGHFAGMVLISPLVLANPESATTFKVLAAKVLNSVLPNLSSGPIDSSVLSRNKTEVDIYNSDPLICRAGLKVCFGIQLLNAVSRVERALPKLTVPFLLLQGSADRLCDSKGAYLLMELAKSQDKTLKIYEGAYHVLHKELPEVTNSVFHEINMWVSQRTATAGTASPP
experiment: MGL Enzyme Activity Assay, purified mutant MGL, 4MU-B substrate
test.settings: mutant MGL 5 nM, 4MU-B 10 μM, 37° C.; read-out: MGL mutant inh IC50
IC50 values for the molecules below.
measurement.type: IC50

chemical_string=O=C(c1cc2ccc(-c3ccccc3)cc2s1)N1CC(N2CC(N3Cc4ccccc4C3=O)C2)C1 measurement_type=IC50 result="< 5 nM"
chemical_string=O=C(c1sc2cc(C(F)(F)F)ccc2c1Cl)N1CC(N2CC(N3Cc4ccccc4C3=O)C2)C1 measurement_type=IC50 result="< 5 nM"
chemical_string=O=C(NC1CN(C2CN(C(=O)c3ccc4c(cnn4-c4ccccc4)c3)C2)C1)c1nccs1 measurement_type=IC50 result="< 5 nM"
chemical_string=O=C(NC1CN(C2CN(C(=O)c3ccc(-c4cccc(C(F)(F)F)c4)cc3)C2)C1)c1cscn1 measurement_type=IC50 result="6 nM"
chemical_string=O=C(NC1CN(C2CN(C(=O)c3sc4cc(C(F)(F)F)ccc4c3Cl)C2)C1)c1cscn1 measurement_type=IC50 result="< 5 nM"
